Target: Substance-P receptor (Homo sapiens, UniProt P25103)
Sequence (P25103 whole entry): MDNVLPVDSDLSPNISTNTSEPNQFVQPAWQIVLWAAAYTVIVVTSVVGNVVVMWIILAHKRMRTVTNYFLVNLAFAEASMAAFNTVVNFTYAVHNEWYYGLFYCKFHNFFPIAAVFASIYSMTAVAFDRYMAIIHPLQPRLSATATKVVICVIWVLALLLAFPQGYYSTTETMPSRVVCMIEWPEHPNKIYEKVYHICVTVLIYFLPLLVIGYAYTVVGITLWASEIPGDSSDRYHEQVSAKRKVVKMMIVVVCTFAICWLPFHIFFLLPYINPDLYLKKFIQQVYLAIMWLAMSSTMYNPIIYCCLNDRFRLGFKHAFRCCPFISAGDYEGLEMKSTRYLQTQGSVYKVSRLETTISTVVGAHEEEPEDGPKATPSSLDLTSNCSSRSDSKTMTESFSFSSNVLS
Test: Inhibitory activity against binding of [125I]Bolton-Hunter SP to tachykinin NK-1 receptor in human lymphoma IM9 cells.
Type: cell-based, IM-9
readout name: IC50
Answer shape: numeric part, then the unit.

Given O=C1C(Cc2c[nH]c3ccccc23)OCCN1Cc1ccccc1 (stereo unspecified) , respond with its IC50.
3.5 µM
